- Tested on: Staphylococcus epidermis 270
- EXPERIMENTAL PROTOCOL: Broth micro-dilution MIC, SE 270
- Assay type: cell-based
- MEASUREMENT PARAMETERS: unit assumed
OBSERVATION TYPE: MIC, SE270 (µg/mL)
Lab book: enter the figure in µg/mL, no units written.

{"COMPOUND": "CNC(CC(C)C)C(=O)NC1C(=O)NC(CC(N)=O)C(=O)NC2C(=O)NC3C(=O)NC(C(=O)NC(C(=O)NCCc4ccccc4)c4cc(O)cc(O)c4-c4cc3ccc4O)C(OC3CC(C)(N)C(O)C(C)O3)c3ccc(c(Cl)c3)Oc3cc2cc(c3OC2OC(CO)C(O)C(O)C2OC2CC(C)(NCc3ccc(-c4ccccc4)cc3)C(O)C(C)O2)Oc2ccc(cc2Cl)C1O.Cl (centres unmarked)", "OBSERVATION TYPE": "MIC, SE270", "REPORTED RESULT": 1}

Return the recorded MIC, SE270 value; entry: CNC(CC(C)C)C(=O)NC1C(=O)NC(CC(N)=O)C(=O)NC2C(=O)NC3C(=O)NC(C(=O)NC(C(=O)NCCC(c4ccccc4)c4ccccc4)c4cc(O)cc(O)c4-c4cc3ccc4O)C(OC3CC(C)(N)C(O)C(C)O3)c3ccc(c(Cl)c3)Oc3cc2cc(c3OC2OC(CO)C(O)C(O)C2OC2CC(C)(NCc3ccc(-c4ccccc4)cc3)C(O)C(C)O2)Oc2ccc(cc2Cl)C1O (centres unmarked)
16

* * *

MIC, SH415 values for the compounds below.
- Tested on: Staphylococcus haemolyticus 415
- EXPERIMENTAL PROTOCOL: Broth micro-dilution MIC, SH 415
- Format: cell-based
- MEASUREMENT PARAMETERS: unit assumed
Lab book: enter the figure in µg/mL, no units written.

# example entries with known answers
{"COMPOUND": "CNC(CC(C)C)C(=O)NC1C(=O)NC(CC(N)=O)C(=O)NC2C(=O)NC3C(=O)NC(C(=O)NC(C(=O)NCCCN(C)C)c4cc(O)cc(O)c4-c4cc3ccc4O)C(OC3CC(C)(N)C(O)C(C)O3)c3ccc(c(Cl)c3)Oc3cc2cc(c3OC2OC(CO)C(O)C(O)C2OC2CC(C)(NCc3ccc(-c4ccccc4)cc3)C(O)C(C)O2)Oc2ccc(cc2Cl)C1O (stereo not shown)", "ASSAYED TARGET": "Staphylococcus haemolyticus 415", "UNIT ANNOTATION": "µg/mL", "MIC, SH415": 2}
{"COMPOUND": "CNC(CC(C)C)C(=O)NC1C(=O)NC(CC(N)=O)C(=O)NC2C(=O)NC3C(=O)NC(C(=O)NC(C(=O)NCCc4ccccc4)c4cc(O)cc(O)c4-c4cc3ccc4O)C(OC3CC(C)(N)C(O)C(C)O3)c3ccc(c(Cl)c3)Oc3cc2cc(c3OC2OC(CO)C(O)C(O)C2OC2CC(C)(NCc3ccc(-c4ccc(C)cc4)cc3)C(O)C(C)O2)Oc2ccc(cc2Cl)C1O (stereo not shown)", "ASSAYED TARGET": "Staphylococcus haemolyticus 415", "UNIT ANNOTATION": "µg/mL", "MIC, SH415": 4}
{"COMPOUND": "CCCCc1ccc(CNC2(C)CC(OC3C(Oc4c5cc6cc4Oc4ccc(cc4Cl)C(OC4CC(C)(N)C(O)C(C)O4)C4NC(=O)C(NC(=O)C6NC(=O)C(CC(N)=O)NC(=O)C(NC(=O)C(CC(C)C)NC)C(O)c6ccc(c(Cl)c6)O5)c5ccc(O)c(c5)-c5c(O)cc(O)cc5C(C(=O)NCCc5ccccc5)NC4=O)OC(CO)C(O)C3O)OC(C)C2O)cc1.O=C(O)C(F)(F)F (stereo not shown)", "ASSAYED TARGET": "Staphylococcus haemolyticus 415", "UNIT ANNOTATION": "µg/mL", "MIC, SH415": 2}

Provide Staphylococcus haemolyticus 415 MIC, SH415 reading for CNC(CC(C)C)C(=O)NC1C(=O)NC(CC(N)=O)C(=O)NC2C(=O)NC3C(=O)NC(C(=O)NC(C(=O)NCc4ccccc4)c4cc(O)cc(O)c4-c4cc3ccc4O)C(OC3CC(C)(N)C(O)C(C)O3)c3ccc(c(Cl)c3)Oc3cc2cc(c3OC2OC(CO)C(O)C(O)C2OC2CC(C)(NCc3ccc(-c4ccccc4)cc3)C(O)C(C)O2)Oc2ccc(cc2Cl)C1O (stereo not shown) .
4

Provide Staphylococcus haemolyticus 415 MIC, SH415 reading for CNC(CC(C)C)C(=O)NC1C(=O)NC(CC(N)=O)C(=O)NC2C(=O)NC3C(=O)NC(C(=O)NC(C(=O)NCCC(c4ccccc4)c4ccccc4)c4cc(O)cc(O)c4-c4cc3ccc4O)C(OC3CC(C)(N)C(O)C(C)O3)c3ccc(c(Cl)c3)Oc3cc2cc(c3OC2OC(CO)C(O)C(O)C2OC2CC(C)(NCc3ccc(-c4ccccc4)cc3)C(O)C(C)O2)Oc2ccc(cc2Cl)C1O (stereo not shown) .
8

Provide Staphylococcus haemolyticus 415 MIC, SH415 reading for CNC(CC(C)C)C(=O)NC1C(=O)NC(CC(N)=O)C(=O)NC2C(=O)NC3C(=O)NC(C(=O)NC(C(=O)NCCCOC)c4cc(O)cc(O)c4-c4cc3ccc4O)C(OC3CC(C)(N)C(O)C(C)O3)c3ccc(c(Cl)c3)Oc3cc2cc(c3OC2OC(CO)C(O)C(O)C2OC2CC(C)(NCc3ccc(-c4ccccc4)cc3)C(O)C(C)O2)Oc2ccc(cc2Cl)C1O (stereo not shown) .
0.5

Provide Staphylococcus haemolyticus 415 MIC, SH415 reading for CNC(CC(C)C)C(=O)NC1C(=O)NC(CC(N)=O)C(=O)NC2C(=O)NC3C(=O)NC(C(=O)NC(C(=O)NCCCc4ccccc4)c4cc(O)cc(O)c4-c4cc3ccc4O)C(OC3CC(C)(N)C(O)C(C)O3)c3ccc(c(Cl)c3)Oc3cc2cc(c3OC2OC(CO)C(O)C(O)C2OC2CC(C)(N)C(O)C(C)O2)Oc2ccc(cc2Cl)C1O (stereo not shown) [Example 20, A82846B, (3-phenyl-n-propyl) amide] .
0.25

Provide Staphylococcus haemolyticus 415 MIC, SH415 reading for CNC(CC(C)C)C(=O)NC1C(=O)NC(CC(N)=O)C(=O)NC2C(=O)NC3C(=O)NC(C(=O)NC(C(=O)NCc4ccccc4)c4cc(O)cc(O)c4-c4cc3ccc4O)C(OC3CC(C)(N)C(O)C(C)O3)c3ccc(c(Cl)c3)Oc3cc2cc(c3OC2OC(CO)C(O)C(O)C2OC2CC(C)(NCc3ccc(-c4ccccc4)cc3)C(O)C(C)O2)Oc2ccc(cc2Cl)C1O.Cl (stereo not shown) .
1

Provide Staphylococcus haemolyticus 415 MIC, SH415 reading for CNC(CC(C)C)C(=O)NC1C(=O)NC(CC(N)=O)C(=O)NC2C(=O)NC3C(=O)NC(C(=O)NC(C(=O)NCCc4ccccc4)c4cc(O)cc(O)c4-c4cc3ccc4O)C(OC3CC(C)(N)C(O)C(C)O3)c3ccc(c(Cl)c3)Oc3cc2cc(c3OC2OC(CO)C(O)C(O)C2OC2CC(C)(N)C(O)C(C)O2)Oc2ccc(cc2Cl)C1O.O=C(O)C(F)(F)F (stereo not shown) .
0.125

Provide Staphylococcus haemolyticus 415 MIC, SH415 reading for CNC(CC(C)C)C(=O)NC1C(=O)NC(CC(N)=O)C(=O)NC2C(=O)NC3C(=O)NC(C(=O)NC(C(=O)NCc4ccc(OC)cc4)c4cc(O)cc(O)c4-c4cc3ccc4O)C(OC3CC(C)(N)C(O)C(C)O3)c3ccc(c(Cl)c3)Oc3cc2cc(c3OC2OC(CO)C(O)C(O)C2OC2CC(C)(NCc3ccc(-c4ccccc4)cc3)C(O)C(C)O2)Oc2ccc(cc2Cl)C1O.O=C(O)C(F)(F)F (stereo not shown) .
4

* * *

MIC, SE270 values for the compounds below.
- System: Staphylococcus epidermis 270
- EXPERIMENTAL PROTOCOL: Broth micro-dilution MIC, SE 270
- Assay type: cell-based
- MEASUREMENT PARAMETERS: unit assumed

{"COMPOUND": "CNC(CC(C)C)C(=O)NC1C(=O)NC(CC(N)=O)C(=O)NC2C(=O)NC3C(=O)NC(C(=O)NC(C(=O)NCCc4ccccc4)c4cc(O)cc(O)c4-c4cc3ccc4O)C(OC3CC(C)(N)C(O)C(C)O3)c3ccc(c(Cl)c3)Oc3cc2cc(c3OC2OC(CO)C(O)C(O)C2OC2CC(C)(N)C(O)C(C)O2)Oc2ccc(cc2Cl)C1O.O=C(O)C(F)(F)F (stereo not drawn) [Example 16]", "MIC, SE270": "≤ 0.06 µg/mL"}
{"COMPOUND": "CNC(CC(C)C)C(=O)NC1C(=O)NC(CC(N)=O)C(=O)NC2C(=O)NC3C(=O)NC(C(=O)NC(C(=O)NCCCN(C)C)c4cc(O)cc(O)c4-c4cc3ccc4O)C(OC3CC(C)(N)C(O)C(C)O3)c3ccc(c(Cl)c3)Oc3cc2cc(c3OC2OC(CO)C(O)C(O)C2OC2CC(C)(N)C(O)C(C)O2)Oc2ccc(cc2Cl)C1O.O=C(O)C(F)(F)F (stereo not drawn) [Example 23]", "MIC, SE270": "≤ 0.06 µg/mL"}

Return the recorded MIC, SE270 value; entry: CNC(CC(C)C)C(=O)NC1C(=O)NC(CC(N)=O)C(=O)NC2C(=O)NC3C(=O)NC(C(=O)NC(C(=O)NCc4ccccc4)c4cc(O)cc(O)c4-c4cc3ccc4O)C(OC3CC(C)(N)C(O)C(C)O3)c3ccc(c(Cl)c3)Oc3cc2cc(c3OC2OC(CO)C(O)C(O)C2OC2CC(C)(N)C(O)C(C)O2)Oc2ccc(cc2Cl)C1O.O=C(O)C(F)(F)F (stereo not drawn) [Example 24]
≤ 0.06 µg/mL
